The measurements presented in this section are drawn from ChEMBL document CHEMBL4373735.

Biological target: Histone deacetylase 2 (Homo sapiens)
Sequence (Q92769 whole entry, the tested form may be a part): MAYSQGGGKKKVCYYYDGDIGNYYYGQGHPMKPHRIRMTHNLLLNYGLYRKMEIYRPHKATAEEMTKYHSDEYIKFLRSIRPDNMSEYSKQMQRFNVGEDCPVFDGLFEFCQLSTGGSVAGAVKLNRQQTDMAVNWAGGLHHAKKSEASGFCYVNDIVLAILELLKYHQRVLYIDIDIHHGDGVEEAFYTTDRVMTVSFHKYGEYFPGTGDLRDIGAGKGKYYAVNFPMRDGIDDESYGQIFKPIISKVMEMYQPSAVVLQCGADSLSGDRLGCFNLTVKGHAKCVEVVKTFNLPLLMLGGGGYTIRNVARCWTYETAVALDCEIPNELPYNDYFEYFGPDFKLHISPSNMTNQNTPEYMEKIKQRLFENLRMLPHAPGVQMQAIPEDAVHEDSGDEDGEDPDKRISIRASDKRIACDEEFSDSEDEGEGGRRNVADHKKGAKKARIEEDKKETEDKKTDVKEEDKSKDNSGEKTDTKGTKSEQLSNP
Test: Inhibition of recombinant human GST-tagged HDAC2 (1 to 488 residues) expressed in baculovirus infected sf21 cells using RHK-K(Ac)-AMC as substrate after 60 mins by fluorimetry assay
measure: pIC50
pIC50 here: minus log base 10 of the concentration, concentration in moles per litre.

>>> df
                                 smiles_str  result_value
0  CC(C)c1cc(C(=O)N(C)c2ccc(NC(=O)CCCCCCCC(=O)NO)cc2)c(O)cc1O          5.31

Consider the record given below.
Histone deacetylase 2 (Homo sapiens) assay, compound CC(C)c1cc(C(=O)N(C)c2ccc(NC(=O)CCCCCCC(=O)NO)cc2)c(O)cc1O , recorded pIC50 = 5.92
